experimental.details: Compound was tested for inhibitory activity against erythroid (BFU-E) progenitor cells
Assay type: functional, Homo sapiens
property: IC50 (nM)
Record the value in nM, omitting the unit from your answer.

State, in one line, measured IC50 of Cc1cn([C@H]2C[C@H](N=[N+]=[N-])[C@@H](CO)O2)c(=O)[nH]c1=O [ZIDOVUDINE]
600

* * *

Tested on: CFU-GM
experimental.details: Compound was tested for inhibitory activity against human myeloid cells (CFU-GM)
Format: functional, cell-based
property: pIC50
pIC50 (log units): -log10 of the concentration in mol/L.

Read off the recorded pIC50 for Cc1cn([C@H]2C[C@H](N=[N+]=[N-])[C@@H](CO)O2)c(=O)[nH]c1=O
5.82
